# assayedTarget: Sphingosine 1-phosphate receptor 1 (Homo sapiens, UniProt P21453)
# Sequence (P21453 whole entry): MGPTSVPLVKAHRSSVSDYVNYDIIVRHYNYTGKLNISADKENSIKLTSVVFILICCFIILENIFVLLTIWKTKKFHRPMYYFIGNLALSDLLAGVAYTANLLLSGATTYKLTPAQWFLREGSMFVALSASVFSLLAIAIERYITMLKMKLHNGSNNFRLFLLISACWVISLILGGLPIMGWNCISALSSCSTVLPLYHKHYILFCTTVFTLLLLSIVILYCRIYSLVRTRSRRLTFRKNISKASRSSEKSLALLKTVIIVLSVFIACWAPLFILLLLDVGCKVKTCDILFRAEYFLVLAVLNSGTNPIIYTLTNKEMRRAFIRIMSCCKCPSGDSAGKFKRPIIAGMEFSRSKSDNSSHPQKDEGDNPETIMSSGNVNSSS
# assayDetails: BCA Protein Assay: Inhibitory activity evaluation was performed by multi-screen (registered trademark) HTS 96-well plate (Millipore) using the cell membrane fraction stably expressing S1P1 obtained by the above operation. 25 μL of assay solution (50 mM Tris, 100 mM sodium chloride, 5 mM magnesium chloride, 1 mM EDTA, 1 mM DTT (dithiothreitol), 10 μM GDP (guanosine diphosphate) and 0.5% BSA (bovine serum albumin), pH 7.4), 25 μL of test compounds solution diluted by assay solution and 25 μL of the membrane fraction (0.2 μg protein/μL) were added to each well, and the mixture was gently shaken at room temperature: for 30 minutes. Then, 25 μL of 35S-GTP, and 25 μL of 50 nM S1P1 receptor selective agonist (1-[4-(4-phenyl-5-trifluoromethylthiophen-2-ylmethoxy)benzyl]azetidine-3-carboxylic acid, ¿J. Med. Chem.¿, 2004, vol. 47, pp. 6662-6665, compound 18) were added to each well, respectively, and it was reacted at room temperature for 60 minutes. After the reaction, a reaction solution of each well was suction-filtered. After suction filtration, ice-colded wash solution (50 mM Tris, 100 mM sodium chloride, […] and 1 mM EDTA, pH 7.4) was added to each well, and moreover filters were washed by suction filtration. This wash procedure was performed three times. A bottom of the plate containing the filters was dried at 60° C. After drying, 30 μL of MicroScinti-40 (PerkinElmer) was added to each well, and the radioactivity adsorbed on the filter was determined by TopCount NXT (registered trademark) (PerkinElmer) after shaking for 30 minutes at room temperature.
reportedMetric: IC50 (nM)

| molecule | testValue |
| --- | --- |
| CCN(c1ccc(Cl)c(C)c1)C(CO)c1cccc(CN2CC(C(=O)O)C2)c1 (stereo unspecified) | 11.2 |
